Where do the numbers come from? From the supplement of paper PMC9254222.

System: HEK293T (UBE3A T485A transfected, BAR Wnt reporter)
Experiment: Wnt reporter firefly/Renilla luciferase ratio relative to plate median (fold (linear ratio)); higher = more Wnt/beta-catenin reporter activation
Conditions: concentration: 0.1 uM; 24 h
The full ranking holds about 1,100 compounds; the median of “Wnt reporter firefly/Renilla luciferase ratio relative to plate median” is about 1.1, and the highest 2% start at about 1.6. The entries come from a sample that favours the highest values as a whole.
Please enter yes where Wnt reporter firefly/Renilla luciferase ratio is greater than or equal to 1, and no where it is lower.

Please review the entries below; each comes with its answer.
# input Item CC(C)(C)C(O)/C(=C\c1ccc(Cl)cc1Cl)n1cncn1 (stereo not given) with Wnt reporter firefly/Renilla luciferase ratio of 1 or above?
# output yes

# input Item `CS(=O)(=O)c1ccc(C(=O)C2C(=O)CCCC2=O)c([N+](=O)[O-])c1` with Wnt reporter firefly/Renilla luciferase ratio of 1 or above?
# output yes

# input Item CN(C)C(=S)[S-].[Na+] [Sodium dimethyldithiocarbamate] with Wnt reporter firefly/Renilla luciferase ratio of 1 or above?
# output yes

Would you kindly look at the next entry?
# input Item `CCc1nn(C)c(C(=O)NCc2ccc(C(C)(C)C)cc2)c1Cl` with Wnt reporter firefly/Renilla luciferase ratio of 1 or above?
# output no

----------
Item-by-item account of Wnt reporter firefly/Renilla luciferase ratio
Test system: HEK293T (UBE3A T485A transfected, BAR Wnt reporter)
Assay: Wnt reporter firefly/Renilla luciferase ratio relative to plate median (fold (linear ratio)); higher = more Wnt/beta-catenin reporter activation
Conditions: concentration: 1 uM; 24 h
Whole data set: some 1,100 compounds, median “Wnt reporter firefly/Renilla luciferase ratio relative to plate median” near 1.1, cut for the highest 2% near 1.6. This is one part of a sample in which the highest values are shown more often than they occur.
Provide a numeric answer; units are not to be included.

Some molecules with known Wnt reporter firefly/Renilla luciferase ratio results, for comparison:
Form: item CNC(=O)Oc1cccc2ccccc12 [Carbaryl] ; test system HEK293T (UBE3A T485A transfected, BAR Wnt reporter); Wnt reporter firefly/Renilla luciferase ratio: 1.07

Form: item O=C(O)c1nc(Cl)ccc1Cl [Clopyralid] ; test system HEK293T (UBE3A T485A transfected, BAR Wnt reporter); Wnt reporter firefly/Renilla luciferase ratio: 1.02

Form: item c1ccc(OP(Oc2ccccc2)Oc2ccccc2)cc1 [Triphenyl phosphite] ; test system HEK293T (UBE3A T485A transfected, BAR Wnt reporter); Wnt reporter firefly/Renilla luciferase ratio: 1.06

Others:
Form: item CCCCC(O)(Cn1cncn1)c1ccc(Cl)cc1Cl (centres undefined) [Hexaconazole] ; test system HEK293T (UBE3A T485A transfected, BAR Wnt reporter); Wnt reporter firefly/Renilla luciferase ratio: 1

----------
Test system: HEK293T (UBE3A T485A transfected, BAR Wnt reporter)
Experiment: Wnt reporter firefly/Renilla luciferase ratio relative to plate median (fold (linear ratio)); higher = more Wnt/beta-catenin reporter activation
Conditions: concentration: 10 uM; 24 h
Whole data set: some 1,100 compounds, median “Wnt reporter firefly/Renilla luciferase ratio relative to plate median” near 1.1, cut for the highest 2% near 1.6. The full list was thinned out, with the highest values kept by preference.
Please enter class 1 where Wnt reporter firefly/Renilla luciferase ratio is greater than or equal to 0.9, and class 0 where it is lower.

Please review the entries below; each comes with its answer.
# input Item COS(=O)(=O)[O-].Cn1c(-c2ccccc2)cc(-c2ccccc2)[n+]1C [Difenzoquat metilsulfate] with Wnt reporter firefly/Renilla luciferase ratio of 0.9 or above?
# output class 0

# input Item CC(C)=CC1C(C(=O)OCN2C(=O)C3=C(CCCC3)C2=O)C1(C)C (stereo unspecified) with Wnt reporter firefly/Renilla luciferase ratio of 0.9 or above?
# output class 0

# input Item C=C(C)C(=O)[O][Sn]([CH2]CCC)([CH2]CCC)[CH2]CCC [Tributyltin methacrylate] with Wnt reporter firefly/Renilla luciferase ratio of 0.9 or above?
# output class 0

# input Item `CCOC(=O)COc1cc(-c2nn(C)c(OC(F)F)c2Cl)c(F)cc1Cl` with Wnt reporter firefly/Renilla luciferase ratio of 0.9 or above?
# output class 1

Others:
# input Item `COc1nn(CSP(=S)(OC)OC)c(=O)s1` with Wnt reporter firefly/Renilla luciferase ratio of 0.9 or above?
# output class 1

# input Item CCOC(=O)C(Cl)Cc1cc(-n2nc(C)n(C(F)F)c2=O)c(F)cc1Cl (stereo unspecified) with Wnt reporter firefly/Renilla luciferase ratio of 0.9 or above?
# output class 1

----------
Tested on: HEK293T (UBE3A T485A transfected, BAR Wnt reporter)
Assay: Wnt reporter firefly/Renilla luciferase ratio relative to plate median (fold (linear ratio)); higher = more Wnt/beta-catenin reporter activation
Details: concentration: 100 uM; 24 h
In all, about 1,100 compounds were measured (“Wnt reporter firefly/Renilla luciferase ratio relative to plate median”: median about 1.1, highest 2% from about 1.6 on). Only a selection was taken, and the highest values are over-represented in it overall.
Item-by-item account of Wnt reporter firefly/Renilla luciferase ratio
Provide a numeric answer; units are not to be included.

Form: item `Oc1c(Cl)cc(Cl)cc1Cl` ; test system HEK293T (UBE3A T485A transfected, BAR Wnt reporter); Wnt reporter firefly/Renilla luciferase ratio: 0.524

Form: item `CCCCCCCc1ccc(O)cc1` ; test system HEK293T (UBE3A T485A transfected, BAR Wnt reporter); Wnt reporter firefly/Renilla luciferase ratio: 1.01

Form: item CC1(C)C(C=C(Cl)Cl)C1C(=O)OCc1cccc(Oc2ccccc2)c1 (stereo not given) ; test system HEK293T (UBE3A T485A transfected, BAR Wnt reporter); Wnt reporter firefly/Renilla luciferase ratio: 0.865

Others:
Form: item CCOP(=O)(NC(C)C)Oc1ccc(SC)c(C)c1 (stereo not given) ; test system HEK293T (UBE3A T485A transfected, BAR Wnt reporter); Wnt reporter firefly/Renilla luciferase ratio: 0.243

Form: item c1ccc(C2CO2)cc1 (stereo not given) [Styrene oxide] ; test system HEK293T (UBE3A T485A transfected, BAR Wnt reporter); Wnt reporter firefly/Renilla luciferase ratio: 1.71

Form: item ClC1=C(Cl)C2(Cl)C3C4OC4C(Cl)C3C1(Cl)C2(Cl)Cl (stereo not given) [Heptachlor epoxide] ; test system HEK293T (UBE3A T485A transfected, BAR Wnt reporter); Wnt reporter firefly/Renilla luciferase ratio: 1.5

Form: item `CS(=O)(=O)c1ccc(C(=O)C2C(=O)CCCC2=O)c([N+](=O)[O-])c1` ; test system HEK293T (UBE3A T485A transfected, BAR Wnt reporter); Wnt reporter firefly/Renilla luciferase ratio: 1.16

Form: item `CCCCCCCCCc1ccc(O)cc1` ; test system HEK293T (UBE3A T485A transfected, BAR Wnt reporter); Wnt reporter firefly/Renilla luciferase ratio: 0.953

Form: item `ClC1=C(Cl)C(Cl)(Cl)C(Cl)=C1Cl` ; test system HEK293T (UBE3A T485A transfected, BAR Wnt reporter); Wnt reporter firefly/Renilla luciferase ratio: 0.638

Form: item CC(C)C1(C)N=C(c2ncccc2C(=O)O)NC1=O (stereo not given) ; test system HEK293T (UBE3A T485A transfected, BAR Wnt reporter); Wnt reporter firefly/Renilla luciferase ratio: 1.24

----------
Item-by-item account of Wnt reporter firefly/Renilla luciferase ratio
System: HEK293T (UBE3A T485A transfected, BAR Wnt reporter)
Test: Wnt reporter firefly/Renilla luciferase ratio relative to plate median (fold (linear ratio)); higher = more Wnt/beta-catenin reporter activation
Details: concentration: 0.1 uM; 24 h
The full ranking holds about 1,100 compounds; the median of “Wnt reporter firefly/Renilla luciferase ratio relative to plate median” is about 1.1, and the highest 2% start at about 1.6. The entries come from a sample that favours the highest values as a whole.

Form: item `c1ccc(OP(Oc2ccccc2)Oc2ccccc2)cc1` ; test system HEK293T (UBE3A T485A transfected, BAR Wnt reporter); Wnt reporter firefly/Renilla luciferase ratio: 0.971

Form: item C#CCC1=C(C)C(OC(=O)C2C(C=C(C)C)C2(C)C)CC1=O (centres undefined) ; test system HEK293T (UBE3A T485A transfected, BAR Wnt reporter); Wnt reporter firefly/Renilla luciferase ratio: 0.996

Form: item CC(Oc1ccc(Cl)cc1Cl)C(=O)O (centres undefined) ; test system HEK293T (UBE3A T485A transfected, BAR Wnt reporter); Wnt reporter firefly/Renilla luciferase ratio: 1.21

Could you now look at the following compound, please?
Form: item CN(C)C(=O)Cl [Dimethylcarbamoyl chloride] ; test system HEK293T (UBE3A T485A transfected, BAR Wnt reporter); Wnt reporter firefly/Renilla luciferase ratio: 0.982

----------
Tested on: HEK293T (UBE3A T485A transfected, BAR Wnt reporter)
Test: Wnt reporter firefly/Renilla luciferase ratio relative to plate median (fold (linear ratio)); higher = more Wnt/beta-catenin reporter activation
Settings: concentration: 100 uM; 24 h
In all, about 1,100 compounds were measured (“Wnt reporter firefly/Renilla luciferase ratio relative to plate median”: median about 1.1, highest 2% from about 1.6 on). Only a selection was taken, and the highest values are over-represented in it overall.
Please enter true where Wnt reporter firefly/Renilla luciferase ratio is greater than or equal to 1, and false where it is lower.

# input Item CCCCOC(=O)c1ccccc1C(=O)OCCCC [Dibutyl phthalate] with Wnt reporter firefly/Renilla luciferase ratio of 1 or above?
# output false

# input Item `COC(=O)N(C(=O)N1CO[C@@]2(C(=O)OC)Cc3cc(Cl)ccc3C2=N1)c1ccc(OC(F)(F)F)cc1` with Wnt reporter firefly/Renilla luciferase ratio of 1 or above?
# output false

# input Item `Cc1cc(C)cc(C)c1` with Wnt reporter firefly/Renilla luciferase ratio of 1 or above?
# output true

# input Item CCCCOC(=O)c1ccccc1C(=O)O [Monobutyl phthalate] with Wnt reporter firefly/Renilla luciferase ratio of 1 or above?
# output true

# input Item `CCNC(=O)NC(=O)/C(C#N)=N/OC` with Wnt reporter firefly/Renilla luciferase ratio of 1 or above?
# output true

# input Item `CC(C)N1C(=O)c2ccccc2NS1(=O)=O` with Wnt reporter firefly/Renilla luciferase ratio of 1 or above?
# output false

# input Item `CCOP(=O)(OCC)Oc1nc(Cl)c(Cl)cc1Cl` with Wnt reporter firefly/Renilla luciferase ratio of 1 or above?
# output false

# input Item ClC1=C(Cl)C2(Cl)C3C(Cl)C=CC3C1(Cl)C2(Cl)Cl (centres undefined) with Wnt reporter firefly/Renilla luciferase ratio of 1 or above?
# output true

Would you kindly look at the next entry?
# input Item CCCCC(CC)COC(=O)c1ccccc1C(=O)OCC(CC)CCCC (centres undefined) [Di(2-ethylhexyl) phthalate] with Wnt reporter firefly/Renilla luciferase ratio of 1 or above?
# output false
